target: 14-3-3σ/C-RAF (Homo sapiens, UniProt P31947); construct: The 14-3-3 σ isoform (full-length for mass spectrometry and fluorescence anisotropy assays, ΔC for crystallography); made in house; host or cells: E. coli Rosetta 2(DE3)pLysS, pPROEX HTb vector; test: Mass spectrometry dose response, compound binding to 14-3-3σ in the presence of C-RAF phosphopeptide; settings: 100 nM compound, 100 nM 14-3-3σ, C-RAF peptide 18 µM, 24h
Sequence (P31947 whole entry, canonical isoform): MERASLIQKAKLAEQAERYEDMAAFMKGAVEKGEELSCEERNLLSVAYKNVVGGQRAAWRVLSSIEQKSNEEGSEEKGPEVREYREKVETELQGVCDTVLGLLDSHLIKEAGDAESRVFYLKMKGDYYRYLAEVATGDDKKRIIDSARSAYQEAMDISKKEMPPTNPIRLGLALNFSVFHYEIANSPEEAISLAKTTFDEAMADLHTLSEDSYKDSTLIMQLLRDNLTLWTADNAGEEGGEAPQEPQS
If the reported Percentage (%) bound of compound to 14-3-3σ, CRAF 24h equals or exceeds 8%, assign 1 (yes). If not, assign 0 (no).

C=CS(=O)(=O)NCC1CCN(C(=O)C(C)(C)Oc2ccc(Cl)cc2)CC1 [compound 17] ... 1 (yes)
NC1CCC(Oc2ccc(Cl)cc2)(C(=O)N2CCC(CNC(=O)CCl)CC2)CC1 (centres unmarked) [compound 135] ... 0 (no)
CC1CC(Nc2ccc(Cl)cc2)(C(=O)NCC2CC3(CCN(C(=O)CCl)CC3)C2)CC(C)O1 (centres unmarked) [compound 180] ... 1 (yes)
O=C(CCl)NCC1CCN(C(=O)C2(Nc3ccccc3)CCCC2)CC1 [compound 120] ... 0 (no)
O=C(CCl)NCC1CCN(C(=O)C2(Nc3ccc(Cl)cc3)CCOCC2)CC1 [compound 127] ... 1 (yes)

Answer whether Percentage (%) bound of compound to 14-3-3σ, CRAF 24h of O=C(CCl)NCC1CCN(C(=O)C2(Nc3ccccc3)CCC2)CC1 [compound 98] is greater than or equal to 8%.
0 (no)

Answer whether Percentage (%) bound of compound to 14-3-3σ, CRAF 24h of O=C(CCl)NCC1CC2(CCN(C(=O)C3(Nc4ccc(Cl)cc4)CCOCC3)CC2)C1 [compound 174] is greater than or equal to 8%.
0 (no)

Answer whether Percentage (%) bound of compound to 14-3-3σ, CRAF 24h of O=C(CCl)NCC1CCN(C(=O)C2(Oc3ccc(Cl)cc3)CCCC2)CC1 [compound 117] is greater than or equal to 8%.
1 (yes)
